Recorded values, source PubChem BioAssay.

experiment: survival rescue of mitochondrial mutant cells in low glucose, primary screen, MELAS cybrids, Rieske KO mouse fibroblasts, CellTiter-Glo (AID 1508586); settings: MELAS cybrid survival, CellTiter-Glo 48 h, stronger effect = higher value;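 note: test concentration not given here; z relative to plate mean and SD of compound and empty wells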
parameter measured: z-score
In your answer, state the number alone without any accompanying words.

Reference set, count: 8
Nc1nc2ncc(CNc3ccc(C(=O)N[C@@H](CCC(=O)O)C(=O)O)cc3)nc2c(=O)[nH]1 | 0.332
COC1=CC(=O)C[C@@H](C)[C@]12Oc1c(Cl)c(OC)cc(OC)c1C2=O | 1.78
CCCN(CCS(C)(=O)=O)Cc1ccc(-c2ccc3ncnc(Nc4ccc(OCc5cccc(F)c5)c(Cl)c4)c3c2)o1 | -0.517
COc1cc(Nc2nccc(-c3cnn4ncccc34)n2)cc(OC)c1 | 1.1
CCCN1CCC(c2ccc(Nc3nc(Nc4cc(F)ccc4C(N)=O)c4cc[nH]c4n3)c(OC)c2)CC1 | -0.472
C#Cc1cccc(Nc2ncnc3ccc(OCCCCNCCS(C)(=O)=O)cc23)c1 | -0.125
CN(C)c1cc2c(Nc3ccc4nc(Cc5ccccc5)[nH]c4c3)ncnc2cn1 | 0.173
COc1cc2ncn(-c3cc(OCc4ccccc4C(F)(F)F)c(C(N)=O)s3)c2cc1OC | -0.422

Prompt line: What measured z-score goes with Fc1cccc(COc2ccc(Nc3ncnc4sc(-c5cccs5)cc34)cc2Cl)c1 ?
Response line: -0.00271
